Hey, just so you know, these numbers are from patent US8569267B2.

# subject of test: human cloned 5-HT2C receptor, expressed in CHO cells (Homo sapiens, UniProt P28335)
# Construct: expressed in transfected cells; host or cells: CHO cells
# Sequence (P28335 33-458): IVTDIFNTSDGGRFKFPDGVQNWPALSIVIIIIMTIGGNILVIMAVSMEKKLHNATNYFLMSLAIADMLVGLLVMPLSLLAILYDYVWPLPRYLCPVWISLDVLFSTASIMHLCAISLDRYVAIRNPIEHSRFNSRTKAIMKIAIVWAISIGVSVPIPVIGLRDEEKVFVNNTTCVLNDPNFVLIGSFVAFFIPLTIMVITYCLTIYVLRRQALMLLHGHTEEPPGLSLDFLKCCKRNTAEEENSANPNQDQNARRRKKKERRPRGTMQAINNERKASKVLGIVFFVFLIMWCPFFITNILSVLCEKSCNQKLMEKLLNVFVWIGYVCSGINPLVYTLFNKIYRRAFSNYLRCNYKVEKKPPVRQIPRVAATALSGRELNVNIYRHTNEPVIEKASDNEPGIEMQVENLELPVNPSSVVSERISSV
# method notes: In vitro binding affinity for 5-HT2C receptor ([3H]mesulergine radioligand binding)
# condition set: human cloned 5-HT2C receptor
# Procedure: In Vitro Binding Affinity for 5-HT2A and 5-HT2C Receptors The interaction of the compounds of Formula (I) with 5-HT2A and 5-HT2C receptors was assessed in in vitro radioligand binding experiments. […] When equilibrium of binding is reached, the receptor bound radioactivity is separated from the non-bound radioactivity, and the receptor bound activity is counted. The interaction of the test compounds with the receptors is assessed in competition binding experiments. […]
observed property: 5-HT2C pIC50
The reply should be a number, written without any unit.

Ask: GET /values?readout=5-HT2C pIC50&item= O=C(O)C(=O)O.OCC1CCCN(C[C@H]2C[C@@H]3c4ccccc4Cc4ccc(F)cc4[C@@H]3O2)C1 (single isomer, unassigned) [Compound 148]
Reply: 8.71

---
Ask: GET /values?readout=5-HT2C pIC50&item= O=C(O)C(=O)O.OC1CCN(CC2CC3c4ccccc4Oc4ccc(Cl)cc4C3O2)CC1 (stereo not drawn) [Compound 285]
Reply: 7.76

Ask: GET /values?readout=5-HT2C pIC50&item= N#Cc1ccc2c(c1)C1CC(CN3CCC(O)C3)OC1c1cc(F)ccc1S2.O=C(O)C(=O)O (mixture of isomers)
Reply: 7.64

Ask: GET /values?readout=5-HT2C pIC50&item= O=C(O)C(=O)O.O[C@@H]1CCN(C[C@H]2C[C@@H]3c4ccccc4Cc4ccc(F)cc4[C@@H]3O2)C1
Reply: 9.58

Ask: GET /values?readout=5-HT2C pIC50&item= N#CC1CCCN(C[C@H]2C[C@@H]3c4ccccc4Cc4ccc(F)cc4[C@@H]3O2)CC1.O=C(O)C(=O)O.O=C(O)C(=O)O (mixture of isomers)
Reply: 8.24

Ask: GET /values?readout=5-HT2C pIC50&item= Fc1ccc2c(c1)C1OC(CN3CCN(Cc4ccoc4)CC3)CC1c1ccccc1C2.O=C(O)C(F)(F)F (stereo not drawn)
Reply: 7.66

Ask: GET /values?readout=5-HT2C pIC50&item= CC1CN(CC2CC3c4ccccc4Cc4ccc(F)cc4C3O2)C(C)CN1.O=C(O)C(=O)O (mixture of isomers)
Reply: 6.53

Ask: GET /values?readout=5-HT2C pIC50&item= COc1ccc2c(c1)C1OC(CN3CCC(O)CC3)CC1c1ccccc1O2.O=C(O)C(=O)O (racemic) [Compound 288]
Reply: 6.71

----------
# subject of test: human cloned 5-HT2A receptor, expressed in L929 cells (Homo sapiens)
# Construct: expressed in transfected cells; host or cells: L929 cells
# method notes: In vitro binding affinity for 5-HT2A receptor ([125I]R91150 radioligand binding)
# condition set: human cloned 5-HT2A receptor in L929 cells, [125I]R91150; read-out: 5-HT2A pIC50 (converted)
Measured log10 of IC50 of individual entries
Short version: log10 scale, IC50, nM.

Ask: GET /values?readout=log10 of IC50&item= CCOC(=O)C1CCCCN1CC1CC2c3ccccc3Cc3ccc(F)cc3C2O1 (mixture of isomers)
Reply: 1.37

Ask: GET /values?readout=log10 of IC50&item= CCCCCC(=Cc1ccccc1)CN1CCN(CC2CC3c4ccccc4Cc4ccc(F)cc4C3O2)CC1 (stereo not shown)
Reply: 1.54

Ask: GET /values?readout=log10 of IC50&item= Fc1ccc2c(c1)C1OC(CN3CCC(NC(=S)NCCN4CCOCC4)CC3)CC1c1ccccc1C2 (stereo not shown)
Reply: 0.32

Ask: GET /values?readout=log10 of IC50&item= O=C(c1cccs1)N1CCN(CC2CC3c4ccccc4Cc4ccc(F)cc4C3O2)CC1 (stereo not shown)
Reply: -0.14

Ask: GET /values?readout=log10 of IC50&item= O=C(NCCN1CCOCC1)C1CCN(CC2CC3c4ccccc4Cc4ccc(F)cc4C3O2)CC1 (stereo not shown)
Reply: 0.68

Ask: GET /values?readout=log10 of IC50&item= CN(C)C(=O)CC1CN(C[C@H]2C[C@@H]3c4ccccc4Cc4ccc(F)cc4[C@@H]3O2)CCO1 (stereo partly shown)
Reply: 0.20

Ask: GET /values?readout=log10 of IC50&item= CN1c2ccccc2C2CC(CN3CCC(O)C3)OC2c2ccccc21 (racemic)
Reply: 2.40

Ask: GET /values?readout=log10 of IC50&item= O=C(NC1CC1)C1CCN(CC2CC3c4ccccc4Cc4ccc(F)cc4C3O2)CC1 (stereo not shown)
Reply: -0.37

---
Ask: GET /values?readout=log10 of IC50&item= O=C(C1CCN(CC2CC3c4ccccc4Cc4ccc(F)cc4C3O2)CC1)N1CCN(c2cccc(Cl)c2)CC1 (stereo not shown)
Reply: 0.54

Ask: GET /values?readout=log10 of IC50&item= COc1ccccc1N1CCN(C(=O)C2CCN(CC3CC4c5ccccc5Cc5ccc(F)cc5C4O3)CC2)CC1 (stereo not shown)
Reply: 0.56

Ask: GET /values?readout=log10 of IC50&item= COc1ccc(NC(=S)N2CCN(CC3CC4c5ccccc5Cc5ccc(F)cc5C4O3)CC2)cc1 (stereo not shown)
Reply: 0.52

----------
# subject of test: human Dopamine D2L receptor (Homo sapiens, UniProt P14416)
# Construct: expressed in transfected cells; host or cells: CHO cells
# Sequence (P14416 whole entry): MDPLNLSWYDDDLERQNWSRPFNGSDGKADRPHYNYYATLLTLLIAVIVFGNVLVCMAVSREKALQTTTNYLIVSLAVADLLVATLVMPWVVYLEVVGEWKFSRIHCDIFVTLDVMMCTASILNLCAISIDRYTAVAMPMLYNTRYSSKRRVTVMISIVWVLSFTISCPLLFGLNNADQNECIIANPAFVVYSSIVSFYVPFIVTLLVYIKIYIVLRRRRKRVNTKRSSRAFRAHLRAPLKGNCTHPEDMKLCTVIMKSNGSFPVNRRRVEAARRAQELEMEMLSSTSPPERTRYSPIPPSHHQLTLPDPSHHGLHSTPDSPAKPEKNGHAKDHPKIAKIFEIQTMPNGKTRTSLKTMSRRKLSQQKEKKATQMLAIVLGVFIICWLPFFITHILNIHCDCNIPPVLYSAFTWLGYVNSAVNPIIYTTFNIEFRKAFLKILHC
# method notes: In vitro binding affinity for human D2L receptor ([3H]Spiperone binding)
# condition set: human D2L receptor-transfected CHO cell membranes, read-out: D2L pIC50 (converted)
Measured IC50 of individual entries
The answer consists of two parts: a number and, after it, its unit.

Ask: I'm curious: which IC50 was measured for Fc1ccc2c(c1)C1OC(CN3CCN(Cc4cnc[nH]4)CC3)CC1c1ccccc1C2 (stereo not drawn) tested on human Dopamine D2L receptor (Homo sapiens, UniProt P14416)?
Reply: 13.8 nM

Ask: I'm curious: which IC50 was measured for Fc1ccc(OCC2CCN(CC3CC4c5ccccc5Cc5ccc(F)cc5C4O3)C2)cc1 (stereo not drawn) tested on human Dopamine D2L receptor (Homo sapiens, UniProt P14416)?
Reply: 3.63 nM

Next up:
Ask: I'm curious: which IC50 was measured for OC1CCN(C[C@H]2C[C@@H]3c4ccccc4Cc4ccc(F)cc4[C@@H]3O2)CC1 tested on human Dopamine D2L receptor (Homo sapiens, UniProt P14416)?
Reply: 4.79 nM

----------
# subject of test: human Dopamine D2L receptor (Homo sapiens, UniProt P14416)
# Construct: expressed in transfected cells; host or cells: CHO cells
# method notes: In vitro binding affinity for human D2L receptor ([3H]Spiperone binding)
# condition set: human D2L receptor-transfected CHO cell membranes, read-out: D2L pIC50 (converted)
Measured IC50 of individual entries
Field format: number, assumed µM, no unit text.

Sample answers from the record:
Ask: GET /values?readout=IC50&item= CC(C)(C)COC(=O)NC1CCN(CC2CC3c4ccccc4Cc4ccc(F)cc4C3O2)CC1 (stereo not shown) [Compound 215]
Reply: 0.0158

Ask: GET /values?readout=IC50&item= NCCN1CCN(CC2CC3c4ccccc4Cc4ccc(F)cc4C3O2)CC1 (stereo not shown) [Compound 47]
Reply: 0.01

Ask: GET /values?readout=IC50&item= CCOC(=O)NC1CCN(CC2CC3c4ccccc4Cc4ccc(F)cc4C3O2)CC1 (stereo not shown) [Compound 211]
Reply: 0.00589

Next up:
Ask: GET /values?readout=IC50&item= N#Cc1cccc(CN2CCN(CC3CC4c5ccccc5Cc5ccc(F)cc5C4O3)CC2)c1 (stereo not shown) [Compound 70]
Reply: 0.0204

----------
# subject of test: human Dopamine D2L receptor (Homo sapiens, UniProt P14416)
# Construct: expressed in transfected cells; host or cells: CHO cells
# method notes: In vitro binding affinity for human D2L receptor ([3H]Spiperone binding)
# condition set: human D2L receptor-transfected CHO cell membranes, read-out: D2L pIC50 (converted)
Measured log10 IC50 of individual entries
Short version: log10 scale, IC50, µM.

Ask: GET /values?readout=log10 IC50&item= O=C(C1CCN(CC2CC3c4ccccc4Cc4ccc(F)cc4C3O2)CC1)N1CCN(CC=Cc2ccccc2)CC1 (stereo not drawn) [Compound 204]
Reply: -1.18

Ask: GET /values?readout=log10 IC50&item= Fc1ccc2c(c1)C1OC(CN3CCN(c4ncccc4C(F)(F)F)CC3)CC1c1ccccc1C2 (stereo not drawn) [Compound 121]
Reply: -1.11

Ask: GET /values?readout=log10 IC50&item= CS(=O)(=O)N1CCN(CC2CC3c4ccccc4Cc4ccc(F)cc4C3O2)CC1 (stereo not drawn) [Compound 102]
Reply: -1.97

Ask: GET /values?readout=log10 IC50&item= O=C(Nc1ccccc1)OCC1CCN(CC2CC3c4ccccc4Cc4ccc(F)cc4C3O2)C1 (mixture of isomers) [Compound 22]
Reply: -2.30

Ask: GET /values?readout=log10 IC50&item= CC(C)(C)NC(=S)N1CCN(CC2CC3c4ccccc4Cc4ccc(F)cc4C3O2)CC1 (stereo not drawn) [Compound 109]
Reply: -0.88

Ask: GET /values?readout=log10 IC50&item= N#Cc1cccc(OC2CCN(CC3CC4c5ccccc5Cc5ccc(F)cc5C4O3)C2)c1 (mixture of isomers) [Compound 29]
Reply: -1.84

Ask: GET /values?readout=log10 IC50&item= CCN(CC)CCN(C)C(=O)C1CCN(CC2CC3c4ccccc4Cc4ccc(F)cc4C3O2)CC1 (stereo not drawn) [Compound 199]
Reply: -1.45

Ask: GET /values?readout=log10 IC50&item= O=C(NCCCc1ccccc1)N1CCN(CC2CC3c4ccccc4Cc4ccc(F)cc4C3O2)CC1 (stereo not drawn) [Compound 93]
Reply: -1.93

Ask: GET /values?readout=log10 IC50&item= N#Cc1ccc2c(c1)[C@H]1C[C@@H](CN3CCC(O)C3)O[C@H]1c1cc(F)ccc1S2 (relative stereo) [Compound 260]
Reply: -1.61
